Below: a set of entries, each annotated with reported melting point.

[
  {
    "molecule": "CC(C)Nc1ncc2cc(-c3cccc(C(=O)Nc4ccnc(N5CCCC5)c4)c3)c(O)cc2n1 [Compound 372]",
    "melting point": "275 to 279 °C"
  },
  {
    "molecule": "CC(C)Nc1ncc2cc(-c3cccc(NC(=O)c4cccc(N5CCOCC5)c4)c3)c(O)cc2n1 [Compound 340]",
    "melting point": "230 °C"
  },
  {
    "molecule": "Cc1ccc(C(=O)NC2CC2)cc1-c1cc2cnc(Nc3c(C)cccc3C)nc2cc1O [Compound 317]",
    "melting point": "210 to 213 °C"
  },
  {
    "molecule": "COc1cc2nc(NC(C)C)ncc2cc1-c1cc(C(=O)NC2CC2)ccc1C [Compound 236]",
    "melting point": "122 to 125 °C"
  },
  {
    "molecule": "CC[C@H](C)Nc1ncc2cc(-c3cc(C(=O)NC4CC4)ccc3C)c(O)cc2n1 [Compound 361]",
    "melting point": "153 °C"
  },
  {
    "molecule": "Cc1cc(C)c(Nc2ncc3cc(-c4ccccc4C)c(O)cc3n2)c(C)c1 [Compound 300]",
    "melting point": "142 °C"
  }
]

Ask | Tell me the measured melting point of Cc1ccccc1-c1cc2cnc(Nc3c(Cl)cccc3Cl)nc2cc1O [Compound 176] , please.
Reply | 226 to 227 °C

Ask | Try this molecule too: COc1c(NC(=O)c2ccc(C)c(-c3cc4cnc(NC(C)C)nc4cc3O)c2)cc(C(C)(C)C)cc1NS(C)(=O)=O [Compound 348]
Reply | 251 to 253 °C

Ask | Try this molecule too: CCC(CC)Nc1ncc2cc(-c3cccc(NC(=O)c4ccnc(N5CCCC5)c4)c3)c(O)cc2n1 [Compound 382]
Reply | 194 °C
